experimental target: Cytochrome P450 1A2 (Homo sapiens) (UniProt P05177)
Sequence (P05177 whole entry, looked up): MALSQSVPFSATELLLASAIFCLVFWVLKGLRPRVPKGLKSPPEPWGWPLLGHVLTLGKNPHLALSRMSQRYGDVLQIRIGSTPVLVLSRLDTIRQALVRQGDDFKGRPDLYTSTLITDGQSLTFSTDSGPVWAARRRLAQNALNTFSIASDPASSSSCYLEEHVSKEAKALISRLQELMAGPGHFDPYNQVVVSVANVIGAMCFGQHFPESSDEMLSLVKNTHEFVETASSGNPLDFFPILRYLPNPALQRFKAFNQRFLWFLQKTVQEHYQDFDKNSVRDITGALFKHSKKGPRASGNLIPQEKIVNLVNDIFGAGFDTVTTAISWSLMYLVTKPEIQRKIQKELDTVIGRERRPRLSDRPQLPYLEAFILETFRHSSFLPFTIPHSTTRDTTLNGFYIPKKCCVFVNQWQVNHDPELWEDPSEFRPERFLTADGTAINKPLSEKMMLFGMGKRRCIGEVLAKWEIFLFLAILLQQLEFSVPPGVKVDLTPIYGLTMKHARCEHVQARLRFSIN
protocol description: p450-cyp1a2 (AID 410)
details: recombinant CYP1A2, luciferin-ME demethylation, luminescence; series mostly up to 57 µM
Results filed as inconclusive are left out. Active and inactive are the calls of the source. Calls come from the whole dose curve.
// one of 1.0 (active), 0.0 (inactive), no free text

So what was the verdict on COc1ccccc1-c1cncnc1NCc1cccc(C)c1 in this test? 1.0

How was CS(=O)(=O)N1CCC[C@@]2(CCN(C(=O)Nc3cccc(C#N)c3)C2)C1 classified in this test? 0.0

Dear all, I need the recorded test outcome for N#Cc1ccccc1-c1ccc2ncnc(NCCN3CCOCC3)c2c1 , thank you. 1.0

Tell me the assay call for Cn1c(=O)c(-c2ccc(Cl)cc2)nc2cnc(OCc3ccccc3)nc21 please. 1.0

For this compound, state the assay outcome: CC(=O)N1CCC2(CC1)CCN(c1ccc(-c3ccccc3)cc1)CC2 1.0

What classification did Cc1noc(C)c1C(=O)N1CCC[C@@]2(CCN(Cc3nccs3)C2)C1 end up with in this test? 0.0

Could you please tell me the result logged for Cn1cc(-c2nc3cnc(Oc4cccc(Cl)c4)nc3n(C3CC3)c2=O)c2ccccc21 in this assay? 1.0

Any idea what this test logged for COCCn1c(=O)c(-c2cn(C)c3ccccc23)nc2cnc(Oc3ccc(OC)cc3)nc21 ? 1.0

// param item: Cc1noc(C)c1-c1nccc(N(C)C)n1 ; yields the recorded call 1.0

Fill in: this test's call for O=C(c1cc(C(F)(F)F)cc(C(F)(F)F)c1)N1CCC2(CC1)CN(Cc1ccccc1)C2 is ___ 0.0

Which outcome was assigned to CS(=O)(=O)Nc1cccc(-c2nc(N3CCOCC3)c3ccccc3n2)c1 in this test? 1.0

###

# key: entry, value: activity change, negative = inhibition
protocol description: AP1 Signaling Pathway (AID 357);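 note: ME-180 reporter cells stimulated with EGF at its EC50 level; % is set by controls: 0 for no effect and ±100 for the full control effect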
details: ME-180 (cervical carcinoma) AP-1-bla reporter, EGF-induced, beta-lactamase ratio, 5 h; at 7.69 µM (top of the series) unless noted
Inconclusive results are not listed. Calls of active or inactive are those of the source. Calls follow the shape of the dose curve; as a rule, active = well fitted curve in either direction with a large enough effect (not every such curve was filed as active); inconclusive = small, poorly fitted or top-dose-only effect, or another doubt; inactive = flat fitted curve, though single readings scatter.

Some compounds with known activity change, negative = inhibition results, for comparison:
given smiles | activity change, negative = inhibition
NS(=O)(=O)c1cc([C@@]2(O)NC(=O)c3ccccc32)ccc1Cl | -7.43% [at 17.2 µM] (inactive)
Cn1cc(C(F)(F)F)nc1-c1ccc(OC[C@@H](O)CNCCOc2ccc(O)c(C(N)=O)c2)cc1 | -8.84% [at 38 µM] (inactive)
COc1ccccc1-c1cncnc1NCc1cccs1 | 0.247% (inactive)
CN(C)C(=O)c1ccc(-c2nccc(NCc3cccs3)n2)cc1 | -0.866% (inactive)
COc1ccc(Oc2ncc3nc(CCc4ccccc4)c(=O)n(C)c3n2)cc1 | -17.4% (inactive)
COCC(=O)N1CCC2(CC1)CCN(C(=O)NC(C)C)CC2 | -2.26% (inactive)

Look up activity change, negative = inhibition for this compound: Cc1ccccc1-c1nc(N2CCOCC2)c2ccccc2n1 4.71% (inactive)

I'd like to know its activity change, negative = inhibition. The compound in question is CC(C)CN1CC2(CCN(C(=O)c3ccco3)CC2)C1 6.73% (inactive)

Give the measured activity change, negative = inhibition of CN(C)c1ncc2nc(-c3ccc(Cl)cc3)c(=O)n(Cc3ccc(F)cc3)c2n1 . 115% [activator] (active)

Fill blank: measured activity change, negative = inhibition of the compound Cc1cccc(CNc2cc(-c3ccccc3Cl)ncn2)c1 is ____. 13.1% (inactive)

Dear colleague, I am looking for the recorded activity change, negative = inhibition of the following compound: Cn1cccc1C(=O)N1CCC2(CCCN(Cc3ccncc3)C2)CC1 -7.26% (inactive)
